# change in vivo at 500 µM values compiled below
Tested on: corn plants (variety NK OCTET)
assay: Reduced plant water use in corn (foliar spray, repeated weighing of pots)
Assay type: in vivo
study conditions: Zea mays, 60 h, corn plants sprayed at 500 μM, cumulative total water use 0-2.5 DAA (sum of the time points) vs negative control, average of 6 pots, read-out: % WU Total 0 to 2.5 DAA
measurement kind: change in vivo at 500 µM (%)

INSERT INTO measurements (smiles_string, measurement_kind, unit_label, reading) VALUES
  ('CCN1C(=O)CCc2cc(CNS(=O)(=O)/C=C/c3ccccc3)ccc21', 'change in vivo at 500 µM', '%', -9.1),
  ('CCCN1C(=O)CCc2cc(C3(NS(=O)(=O)c4ccccc4)CC3)ccc21', 'change in vivo at 500 µM', '%', -4.3),
  ('CCCN1C(=O)CCc2cc(CNS(=O)(=O)c3ccc(F)cc3)ccc21', 'change in vivo at 500 µM', '%', -11.6),
  ('CCN1C(=O)CCc2cc(CNS(=O)(=O)c3ccc(C(F)(F)F)cc3)ccc21', 'change in vivo at 500 µM', '%', -2.9),
  ('CCN1C(=O)CCc2cc(CNS(=O)(=O)c3ccc(Br)cc3)ccc21', 'change in vivo at 500 µM', '%', -3.2),
  ('CCN1C(=O)CCc2cc(CNS(=O)(=O)c3ccsc3)ccc21', 'change in vivo at 500 µM', '%', -11.8),
  ('CCCN1C(=O)CCc2cc(CNS(=O)(=O)/C=C/c3ccccc3F)ccc21', 'change in vivo at 500 µM', '%', -4.6),
  ('C/C=C/S(=O)(=O)NCc1ccc2c(c1)CCC(=O)N2CCC', 'change in vivo at 500 µM', '%', -9.3),
  ('CCCN1C(=O)CCc2cc(CNS(=O)(=O)c3cn(C)cn3)ccc21', 'change in vivo at 500 µM', '%', -1.4);
